# System: WM266.4 melanoma cells
# ASSAY METHOD TEXT: SRB Cell Proliferation Assay (SRB GI50)
# Assay type: cell-based
# RUN CONDITIONS: Homo sapiens, WM 266-4, 144 h, 6 days growth
Task for the reader: assign each of the following molecules its reported GI50.

Report GI50 for each item below.
1. CSc1cc(Oc2ccnc3[nH]c(=O)c(C)nc23)ccc1NC(=O)Nc1cc(C(C)(C)C)nn1-c1ccccc1 [AA-065]
2. O=C(Nc1cc(C(F)(F)F)ccc1F)Nc1ccc(Oc2ccnc3nc(C(F)(F)F)c(=O)[nH]c23)c2ccccc12 [AA-083]
3. O=C(Nc1ccc(Cl)c(C(F)(F)F)c1)Nc1ccc(Oc2ccnc3ncc(=O)[nH]c23)c2ccccc12 [AA-037]
4. O=C(Nc1ccc(Oc2ccnc3[nH]c(=O)cnc23)c(F)c1)Nc1cc(C(F)(F)F)ccc1F [AA-086]
5. Cc1ccc(-n2nc(C(C)(C)C)cc2NC(=O)Nc2ccc(Oc3ccnc4[nH]c(=O)c(=O)[nH]c34)cc2F)cc1 [AA-074]
6. CC(C)(C)c1cc(NC(=O)Nc2ccc(Oc3ccnc4[nH]c(=O)c(=O)[nH]c34)cc2F)n(-c2ccccc2)n1 [AA-091]

*A*
1. < 1000 nM
2. 1000 to 10000 nM
3. < 10000 nM
4. 1000 to 10000 nM
5. < 1000 nM
6. < 1000 nM

Report GI50 for each item below.
1. Cc1ccc(-n2nc(C(C)(C)C)cc2NC(=O)Nc2ccc(Oc3ccnc4[nH]c(=O)cnc34)c(F)c2)cc1 [AA-088]
2. Cc1ccc(-n2nc(C(C)(C)C)cc2NC(=O)Nc2ccc(Oc3ccnc4nc(N5CCOCC5)cnc34)cc2F)cc1 [AA-073]
3. CN(C)c1cnc2c(Oc3ccc(NC(=O)Nc4cc(C(F)(F)F)ccc4F)c(F)c3)ccnc2n1 [AA-068]
4. CC(C)(C)c1cc(NC(=O)Nc2ccc(Oc3ccnc4nc(N5CCOCC5)cnc34)cc2F)n(-c2ccccc2)n1 [AA-071]
5. Nc1nc2nccc(Oc3ccc(NC(=O)Nc4cc(C(F)(F)F)ccc4F)c4ccccc34)c2[nH]c1=O [AA-079]
6. Cc1ccc(-n2nc(C(C)(C)C)cc2NC(=O)Nc2ccc(Oc3ccnc4[nH]c(=O)c(N)nc34)cc2F)cc1 [AA-057]

*A*
["< 1000 nM", "< 1000 nM", "1000 to 10000 nM", "< 1000 nM", "< 1000 nM", "< 1000 nM"]

Report GI50 for each item below.
1. Cc1ccc(-n2nc(C(C)(C)C)cc2NC(=O)Nc2ccc(Oc3ccnc4[nH]c(=O)cnc34)cc2F)cn1 [AA-084]
2. O=C(Nc1cc(C(F)(F)F)ccc1F)Nc1ccc(Oc2ccnc3[nH]c(=O)cnc23)c2ccccc12 [AA-012]
3. CC(C)(C)c1cc(NC(=O)Nc2ccc(Oc3ccnc4[nH]c(=O)c(=O)[nH]c34)cc2F)n(-c2ccc(S(C)(=O)=O)cc2)n1 [AA-092]

*A*
["< 1000 nM", "1000 to 10000 nM", "1000 to 10000 nM"]

Report GI50 for each item below.
1. COc1ccc(-n2nc(C(C)(C)C)cc2NC(=O)Nc2ccc(Oc3ccnc4[nH]c(=O)c(C)nc34)cc2SC)cn1 [AA-064]
2. O=C(Nc1cccc(Oc2ccnc3[nH]c(=O)cnc23)c1)Nc1cc(C(F)(F)F)ccc1F [AA-007]

*A*
1. < 1000 nM
2. 1000 to 10000 nM
